# System: SR
# protocolNotes: NCI tumour cell line growth inhibition, 48 h
Calls of active or inactive are those of the source. Rule as the data show it: active = GI50 up to about 1.1 µM and inactive = higher.
# output must be one of 1.0 (active), 0.0 (inactive)

{"molecule": "CC(Cl)(CCC(Cl)C(C)(C)Cl)C(=O)CBr (stereo not given)", "testedSystem": "SR", "assignedClass": 0.0}
{"molecule": "FC(F)(F)c1n[nH]c(SCc2ccc(Cl)cc2)n1", "testedSystem": "SR", "assignedClass": 0.0}
{"molecule": "CC(=O)OCCCOCn1c(Cc2ccccc2)c(C)c(=O)[nH]c1=O", "testedSystem": "SR", "assignedClass": 0.0}

What is the recorded call for this molecule in the test? Cc1ccc(C2=C(C#N)C(N)OC3=C2COc2ccccc23)cc1 (stereo not given)
0.0

----------
# System: OVCAR-8
# protocolNotes: NCI tumour cell line growth inhibition, 48 h
Calls of active or inactive are those of the source. Cut-off read from the data, not from the text of the source: active = GI50 up to about 1.1 µM and inactive = higher.
The reader will find reported GI50 values listed item by item below.

Illustrative cases are given below, each with its answer.
{"cpdSmiles": "CCOC(=O)/C=C(/C(=O)OCC)n1ccc(N)nc1=O", "GI50": "> 100 µM (inactive)"}
{"cpdSmiles": "C(=C\\c1ccccc1)/C=N/c1nc2cc3sc(/N=C/C=C/c4ccccc4)nc3cc2s1", "GI50": "> 92.3 µM (inactive)"}

Proceeding to the next molecule to report its GI50.
Which GI50 is listed for `O=C(NNC(=O)c1ccco1)c1ccco1` ?
> 100 µM (inactive)

----------
# GI50 values compiled below
# Test system: OVCAR-3
# protocolNotes: NCI tumour cell line growth inhibition, 48 h
Active and inactive are the calls of the source. Cut-off read from the data, not from the text of the source: active = GI50 up to about 1.1 µM and inactive = higher.

Previously resolved entries follow.
{"molecule": "Cc1cc(C)nc(NS(=O)(=O)c2ccc(Nc3c4ccccc4nc4c(C(=O)NCCCN(CCO)CCO)cccc34)cc2)n1", "GI50": "30.1 µM (inactive)"}
{"molecule": "COC(=O)CCC1=CCC2(SC)C(=O)Nc3cccc1c32 (stereo not given)", "GI50": "> 100 µM (inactive)"}
{"molecule": "Cc1ccc(C2=C(C#N)C(N)OC3=C2COc2ccccc23)cc1 (stereo not given)", "GI50": "17 µM (inactive)"}
{"molecule": "c1ccc(CNC2CC(NCc3ccccn3)CC(NCc3ccccn3)C2)nc1 (stereo not given)", "GI50": "4.08 µM (inactive)"}

Lab note: next molecule to report on.
// returns reported GI50 for input `O=c1c(NCc2ccccc2)c(C2(c3ccccc3F)SCCCS2)c1=O`
> 100 µM (inactive)

----------
Documented GI50 across a set of compounds
# Tested on: SW-620
# protocolNotes: NCI tumour cell line growth inhibition, 48 h
Active and inactive are the calls of the source. Rule as the data show it: active = GI50 up to about 1.1 µM and inactive = higher.

The examples below pair each entry with its known result.
{"compound": "N#C/C(=C\\c1ccc(O)c(O)c1)c1c(C#N)c(N)nn1-c1ccccc1", "GI50": "12.8 µM (inactive)"}
{"compound": "O=C(OCc1ccccc1C1CSCSC1)c1cc(C(=O)OCc2ccccc2C2CSCSC2)c(C(=O)OCc2ccccc2C2CSCSC2)cc1C(=O)OCc1ccccc1C1CSCSC1", "GI50": "> 100 µM (inactive)"}
{"compound": "CC(NC(=O)C(N)CC(=O)O)C(=O)OC12CC3CC(CC(C3)C1)C2 (configuration not stated)", "GI50": "> 100 µM (inactive)"}
{"compound": "O=c1[nH]c2ccc(CC(=S)N3CCN(c4ccccc4)CC3)cc2o1", "GI50": "> 100 µM (inactive)"}

What value of GI50 has been recorded for this entry: Cc1ccc(C)c(NC(=O)C(=O)C(C(=O)c2ccc3ccccc3c2)C2OC(=O)c3ccccc32)c1 (configuration not stated)
11.2 µM (inactive)

Likewise for `CNC(=O)N1CN(c2ccccc2)C2(CCN(CCCC3(c4ccc(F)cc4)OCCO3)CC2)C1=O` ?
> 100 µM (inactive)

Also need c1ccc2c(c1)NC1(N3CCCCC3)CCCCC21 (configuration not stated) , thanks.
41.2 µM (inactive)

----------
# Test system: SK-MEL-2
# protocolNotes: NCI tumour cell line growth inhibition, 48 h
Active and inactive are the calls of the source. Cut-off read from the data, not from the text of the source: active = GI50 up to about 1.1 µM and inactive = higher.
propertyMeasured: GI50

Known results for compounds:
{"compound": "C=C1C(=O)OC2/C=C(\\C(=O)O)CC/C=C(\\C)CC(OC(=O)/C=C(\\C)CC)C12 (centres undefined)", "GI50": "14.4 µM (inactive)"}
{"compound": "Nc1cccc2nnccc12", "GI50": "> 100 µM (inactive)"}
{"compound": "COc1c2ccoc2nc2c(OC)c(OCC(O)C(C)(C)O)ccc12 (centres undefined)", "GI50": "> 100 µM (inactive)"}
{"compound": "C=C(C)C(CC=C(C)C)Cc1c(O)cc(OC)c2c1OC(c1ccc(O)cc1O)C(O)C2=O (centres undefined)", "GI50": "19.5 µM (inactive)"}
{"compound": "CC(Cl)(CCC(Cl)C(C)(C)Cl)C(=O)CBr (centres undefined)", "GI50": "14.7 µM (inactive)"}

What value of GI50 has been reported for the following compound? `C#CCNC(=O)N(CC#C)N=O`
> 100 µM (inactive)

# iterate: `CCN1C[C@]2(C)CC[C@H](O)C34C1C(C[C@@H]32)[C@@]1(O)CC[C@H]2C[C@@H]4[C@@H]1[C@H]2O`
> 100 µM (inactive)

Next compound: OCC(Cn1cncn1)(c1ccc(F)cc1F)n1cncn1 (centres undefined)
> 100 µM (inactive)

Input `Clc1ccc(CSCc2ccc(Cl)cc2Cl)c(Cl)c1`
21.3 µM (inactive)

----------
The reader will find reported log10(GI50) values listed item by item below.
# System: HCT-15
Where a SMILES comes first, the peptide text is derived from it. Bridges are numbered along the chain shown (N, C = ends). [ ]: non-standard residue; d: D form. The star is where a group is joined. ξ: configuration not given here. ξNMePhe(4-NMe2) = CNC(Cc1ccc(N(C)C)cc1)C(=O)O; Picolinoyl(3-OH) = O=C(c1ncccc1O)*; ξPip(4-oxo) = O=C1CCNC(C(=O)O)C1; Phg = N[CH](C(=O)O)c1ccccc1; Abu = CC[CH](N)C(=O)O
The common logarithm of GI50 in µM is what is listed.

{"compound": "OC1c2c(ccc3c2CCC3)CC12Cc1ccccc1C2 (configuration not stated)", "experimentalValue": 1.22}
{"compound": "CC1=C/C(O)CC(=O)Cc2nc(co2)C(=O)N2CCC=C2C(=O)OC(C(C)C)C(C)/C=C/C(=O)NC\\C=C\\1.CCC1NC(=O)C(NC(=O)c2ncccc2O)C(C)OC(=O)C(c2ccccc2)NC(=O)C2CC(=O)CCN2C(=O)C(Cc2ccc(N(C)C)cc2)N(C)C(=O)C2CCCN2C1=O (configuration not stated) ({Picolinoyl(3-OH)}-T[Abu]P[ξNMePhe(4-NMe2)][ξPip(4-oxo)][Phg]; ester 1-C; configuration not given here)", "experimentalValue": 0.98}
{"compound": "COC(=O)C1(Cc2ccc3c(c2)CCC3)Cc2ccc3c(c2C1=O)CCC3 (configuration not stated)", "experimentalValue": 0.56}
{"compound": "O=C1/C(=C\\c2cccc(Oc3ccccc3)c2)SC(c2ccccc2)N1Cc1ccccc1 (configuration not stated)", "experimentalValue": 1.52}
{"compound": "COC(=O)[C@]12CCC(C)(C)C[C@H]1[C@H]1C(=O)C=C3[C@@]4(C)C=C(C#N)C(=O)C(C)(C)[C@@H]4CC[C@@]3(C)[C@]1(C)CC2 [BARDOXOLONE METHYL]", "experimentalValue": -1.75}
{"compound": "NC1NCCC(=O)N1CCc1c[nH]c2ccccc12 (configuration not stated)", "experimentalValue": 1.29}
{"compound": "CC1=NN(c2nc(N)nc(/C(C#N)=C\\c3ccc([N+](=O)[O-])s3)n2)C(C)(C)C1", "experimentalValue": -0.97}

# ---- query compound ----
# query: log10(GI50) of entry CC(C)(C)OC(=O)NC(Cc1ccc(OCc2ccccc2)cn1)C(=O)N1CCCC1 (configuration not stated)
1.87

----------
Listing of entries alongside the reported GI50.
# Test system: MDA-N
# protocolNotes: NCI tumour cell line growth inhibition, 48 h
Active and inactive are the calls of the source. Rule as the data show it: active = GI50 up to about 1.1 µM and inactive = higher.

{"compound": "CC(=O)Nc1cccc(N2C(=O)/C(=C\\c3cccc(Oc4ccccc4)c3)SC2c2ccccc2)c1 (configuration not stated)", "experimentalValue": "28.1 µM (inactive)"}
{"compound": "C=Cc1nc2c(Cl)ncnc2n1Cc1ccccc1", "experimentalValue": "3.12 µM (inactive)"}
{"compound": "FC(F)(F)c1n[nH]c(SCc2ccc(Cl)cc2)n1", "experimentalValue": "> 100 µM (inactive)"}
{"compound": "CCOC(=O)c1ccc(Nc2nc3cc(C(F)(F)F)ccc3nc2-c2ccccc2)cc1", "experimentalValue": "> 100 µM (inactive)"}
{"compound": "C[C@@H]1CCC2[C@@H](C)C(=O)O[C@@H]3C4C[C@@H]1[C@@]23OO[C@@]4(C)O (some centres not stated)", "experimentalValue": "55.3 µM (inactive)"}
{"compound": "CN(C)CC1CCC/C(=C\\c2ccc(Cl)cc2)C1=O (configuration not stated)", "experimentalValue": "1.94 µM (inactive)"}
{"compound": "CCOc1cc(-c2nc3cc(F)ccc3s2)ccc1O", "experimentalValue": "15.8 µM (inactive)"}
{"compound": "N/N=C1/C(=N/O)CCc2nonc21", "experimentalValue": "> 100 µM (inactive)"}

Requested field: GI50. Item: CC(=O)CCCCC(=O)Nc1ccc(CC(NC(=O)OC(C)(C)C)C(=O)NCC(=O)OCc2ccccc2)cc1 (configuration not stated)
21 µM (inactive)

Try `C=CCOCn1cc(C)c(=O)[nH]c1=O` next.
> 100 µM (inactive)

One more compound: CC(C)(C)OC(=O)NC(Cc1ccc(OCc2ccccc2)cn1)C(=O)N1CCCC1 (configuration not stated)
55.8 µM (inactive)

Let us now turn to `CC(=O)Nc1ccc2nncnc2c1`
> 100 µM (inactive)
